# System: SbFNR2
# assayDetails: SbFNR2 activity assay (dihydroflavonols, flavanones, anthocyanidins)
# Type: biochemical, Sorghum bicolor
# testParameters: in words
recordedMetric: activity of SbFNR2 against the substrate

1) O=C1c2c(O)cc(O)cc2O[C@H](c2cc(O)c(O)c(O)c2)[C@H]1O [DHM, dihydromyricetin] :: no significant activity
2) O=C1c2c(O)cc(O)cc2O[C@H](c2ccc(O)c(O)c2)[C@H]1O [DHQ, dihydroquercetin] :: no significant activity
3) O=C1c2c(O)cc(O)cc2O[C@H](c2ccc(O)cc2)[C@H]1O [DHK, dihydrokaempferol] :: no significant activity

----------
# targetOrTestSystem: PvDFRa (Panicum virgatum)
# assayDetails: Isothermal titration calorimetry, PvDFRa
# Assay type: binding
# testParameters: ITC, 298 K
# Description: In order to obtain thermodynamic parameters for the association, isothermal titration calorimetry (ITC) for PvDFRa was performed (Figure S8, Table 2). Isothermal Titration Calorimetry: Purified PvDFR was dialyzed to a buffer containing 50 mM Bis-Tris, 50 mM Tricine (pH 6.5), 200 mM NaCl and 2.5% (v/v) glycerol. Substrates were dissolved in the same buffer used for enzyme dialysis. Analysis was conducted utilizing a Microcal ITC 200 (Malvern). […]
∆H: recorded values
recordedMetric: ∆H (kcal/mol)

1) O=C1c2c(O)cc(O)cc2O[C@H](c2cc(O)c(O)c(O)c2)[C@H]1O [DHM, dihydromyricetin] :: -9.10
2) O=C1c2c(O)cc(O)cc2O[C@H](c2ccc(O)cc2)[C@H]1O [DHK, dihydrokaempferol] :: -6.19
3) O=C1C[C@@H](c2ccc(O)cc2)Oc2cc(O)cc(O)c21 [Naringenin, naringenin] :: -4.82
4) O=C1c2c(O)cc(O)cc2O[C@H](c2ccc(O)c(O)c2)[C@H]1O [DHQ, dihydroquercetin] :: -10.77
5) O=C1C[C@@H](c2ccc(O)c(O)c2)Oc2cc(O)cc(O)c21 [Eriodictyol, eriodictyol] :: -6.23

----------
# targetOrTestSystem: PvDFRa (Panicum virgatum, UniProt A0A8T0SQV2)
# assayDetails: Isothermal titration calorimetry, PvDFRa
# Assay type: binding
# testParameters: ITC, 298 K
Below is a list of entries, each paired with its recorded ∆S value.
recordedMetric: ∆S (Cal mol^−1 K^−1)

1) O=C1C[C@@H](c2ccc(O)cc2)Oc2cc(O)cc(O)c21 :: 0.986
2) O=C1c2c(O)cc(O)cc2O[C@H](c2ccc(O)cc2)[C@H]1O [DHK, dihydrokaempferol] :: 0.854
3) O=C1c2c(O)cc(O)cc2O[C@H](c2cc(O)c(O)c(O)c2)[C@H]1O [DHM, dihydromyricetin] :: −9.14
4) O=C1C[C@@H](c2ccc(O)c(O)c2)Oc2cc(O)cc(O)c21 :: −1.74
5) O=C1c2c(O)cc(O)cc2O[C@H](c2ccc(O)c(O)c2)[C@H]1O [DHQ, dihydroquercetin] :: −13.7

----------
# targetOrTestSystem: PvDFRa (Panicum virgatum)
recordedMetric: Kd (µM)

1) O=C1c2c(O)cc(O)cc2O[C@H](c2ccc(O)cc2)[C@H]1O [DHK, dihydrokaempferol] :: 26.4
2) O=C1C[C@@H](c2ccc(O)cc2)Oc2cc(O)cc(O)c21 :: 177
3) O=C1C[C@@H](c2ccc(O)c(O)c2)Oc2cc(O)cc(O)c21 :: 64.9
4) O=C1c2c(O)cc(O)cc2O[C@H](c2cc(O)c(O)c(O)c2)[C@H]1O [DHM, dihydromyricetin] :: 21.2
5) O=C1c2c(O)cc(O)cc2O[C@H](c2ccc(O)c(O)c2)[C@H]1O [DHQ, dihydroquercetin] :: 16.9
